TEST: qHTS of pediatric cancer cell lines to identify multiple opportunities for drug repurposing: Primary screen for Rh30 cells (AID 1347107); further: on the % scale 0 is the no-effect control and ±100 the full control effect; nearly all actives have a fitted effect of over 75% in size
EXPERIMENTAL_SETUP: Rh30 rhabdomyosarcoma viability, CellTiter-Glo luminescence, 48 h; series mostly up to 46 µM
Inconclusive results are not listed. Active and inactive are the calls of the source. The call rests on the fitted dose curve; in most records, active means well fitted cell-killing curve with a large enough effect; inconclusive means small, poorly fitted or top-dose-only effect; inactive means no such curve, though single readings can be large or run the other way.

- COMPOUND: "O=C(O)CNC(=O)c1ccccc1"
  outcome: "inactive"
- COMPOUND: "CN1CCN(CCCN2c3ccccc3Sc3ccc(S(=O)(=O)N(C)C)cc32)CC1"
  outcome: "inactive"
- COMPOUND: "CCCSS/C(CCO)=C(\\C)N(C=O)Cc1cnc(C)nc1N"
  outcome: "inactive"
- COMPOUND: "Cc1ccc(Nc2c(F)cccc2Cl)c(CC(=O)O)c1"
  outcome: "inactive"
- COMPOUND: "C[C@]12C=CC(=O)C=C1CC[C@@H]1[C@@H]2[C@@H](O)C[C@@]2(C)[C@H]1CC[C@]2(O)C(=O)CO"
  outcome: "inactive"
- COMPOUND: "Oc1c(I)cc(Cl)c2cccnc12"
  outcome: "inactive"
- COMPOUND: "C[C@H](CCC(=O)O)[C@H]1CC[C@H]2[C@@H]3C(=O)C[C@@H]4CC(=O)CC[C@]4(C)[C@H]3CC(=O)[C@]12C"
  outcome: "inactive"
- COMPOUND: "Cc1c(C)n(CCN(C)C)c2ccc(C(=O)OCCN(C)C)cc12"
  outcome: "inactive"
- COMPOUND: "Oc1ccc(O)cc1"
  outcome: "inactive"
- COMPOUND: "Cc1cccn2c(=O)c(-c3nnn[nH]3)cnc12"
  outcome: "inactive"
- COMPOUND: "O=C1OC2(c3ccc(O)cc3Oc3cc(O)ccc32)c2ccccc21"
  outcome: "inactive"
- COMPOUND: "C[C@H]1C[C@H]2[C@@H]3CCC4=CC(=O)C=C[C@]4(C)[C@@]3(Cl)[C@@H](O)C[C@]2(C)[C@@]1(O)C(=O)CO"
  outcome: "inactive"
- COMPOUND: "CN(C)CCCOc1nn(Cc2ccccc2)c2ccccc12"
  outcome: "inactive"
- COMPOUND: "CN1[C@@H]2CC[C@H]1CC(OC(=O)c1c[nH]c3ccccc13)C2 (stereo partly specified)"
  outcome: "inactive"
- COMPOUND: "C[C@@H]1C[C@H]2[C@@H]3CCC4=CC(=O)C=C[C@]4(C)[C@@]3(F)[C@@H](O)C[C@]2(C)[C@H]1C(=O)CO"
  outcome: "inactive"
- COMPOUND: "CC1(C)O[C@@H]2C[C@H]3[C@@H]4C[C@H](F)C5=CC(=O)C=C[C@]5(C)[C@H]4[C@@H](O)C[C@]3(C)[C@]2(C(=O)CO)O1"
  outcome: "inactive"
- COMPOUND: "CN1CCN(C(c2ccccc2)c2ccccc2)CC1"
  outcome: "inactive"
- COMPOUND: "COc1cccc2c1C(=O)c1c(O)c3c(c(O)c1C2=O)C[C@@](O)(C(C)=O)C[C@@H]3O[C@H]1C[C@H](N)[C@H](O)[C@H](C)O1"
  outcome: "inactive"
- COMPOUND: "CCN1CCN(c2cc3c(cc2F)c(=O)c(C(=O)O)cn3C2CC2)CC1"
  outcome: "inactive"
- COMPOUND: "CN(C)CC/C=C1\\c2ccccc2Sc2ccc(Cl)cc21"
  outcome: "inactive"
- COMPOUND: "CCN(CC)C(=O)/C(C#N)=C/c1cc(O)c(O)c([N+](=O)[O-])c1"
  outcome: "inactive"
- COMPOUND: "CCN(CCCCOC(=O)c1ccc(OC)c(OC)c1)C(C)Cc1ccc(OC)cc1 (stereo unspecified)"
  outcome: "inactive"
- COMPOUND: "CC[C@@H](CO)NCCN[C@@H](CC)CO"
  outcome: "inactive"
- COMPOUND: "C#C[C@]1(OC(C)=O)CC[C@H]2[C@@H]3CCC4=C[C@@H](OC(C)=O)CC[C@@H]4[C@H]3CC[C@@]21C"
  outcome: "inactive"
- COMPOUND: "C[C@]12CCC(=O)C=C1CC[C@H]1[C@@H]3CC[C@](O)(C(=O)CO)[C@@]3(C)C[C@H](O)[C@@]12F"
  outcome: "inactive"
- COMPOUND: "CC(C)(C)NC(=O)[C@@H]1CN(Cc2cccnc2)CCN1C[C@@H](O)C[C@@H](Cc1ccccc1)C(=O)N[C@H]1c2ccccc2C[C@H]1O"
  outcome: "inactive"

* * *

Each entry below lists one item and its recorded max response value.
TEST: qHTS Assay for Identifying Gametocytocidal Compounds (AID 743244);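 further: on the % scale 0 is the no-effect control and ±100 the full control effect; actives lower the fluorescent signal which means gametocytes are killed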
EXPERIMENTAL_SETUP: P. falciparum 3D7 stage III-V gametocytes, alamarBlue, 72 h; stronger effect = lower value
From the text: Malaria cases and deaths have dropped 50% in 29 countries since 2000 due to the combined effects of long-lasting insecticidal bednets, indoor residual spraying, and artemisinin-based combination therapies (ACTs). […] Within live cells, the nonfluorescent resazurin is reduced to resorufin, a bright red fluorescence dye. Fluorescence decreases upon treatment of gametocytocidal compounds. […]
Records with an inconclusive call do not appear.
METRIC: max response (%)

- COMPOUND: "Cc1ccc(Nc2c(F)cccc2Cl)c(CC(=O)O)c1"
  QUANTITY_UNIT: "%"
  OBS_VALUE: 0.561
- COMPOUND: "C[C@]12CC[C@H]3[C@@H](CCC4=CC(=O)CC[C@@]43C)[C@@H]1CC[C@@H]2C(=O)CO"
  QUANTITY_UNIT: "%"
  OBS_VALUE: 8.05
- COMPOUND: "CC(CCc1ccccc1)NCC(O)c1ccc(O)c(C(N)=O)c1 (stereo not drawn)"
  QUANTITY_UNIT: "%"
  OBS_VALUE: 16.8
- COMPOUND: "Nc1ccc(/C=C/c2ccc(N)cc2S(=O)(=O)O)c(S(=O)(=O)O)c1"
  QUANTITY_UNIT: "%"
  OBS_VALUE: 1.42
- COMPOUND: "CC[C@@H](CO)NCCN[C@@H](CC)CO"
  QUANTITY_UNIT: "%"
  OBS_VALUE: 6.57
- COMPOUND: "CC[N+](CC)(CCNC(=O)C(=O)NCC[N+](CC)(CC)Cc1ccccc1Cl)Cc1ccccc1Cl"
  QUANTITY_UNIT: "%"
  OBS_VALUE: 15.6
- COMPOUND: "C[C@H]1[C@H](NC(=O)/C(=N/OC(C)(C)C(=O)O)c2csc(N)n2)C(=O)N1S(=O)(=O)O (stereo in doubt)"
  QUANTITY_UNIT: "%"
  OBS_VALUE: -0.904
- COMPOUND: "CC1(C)O[C@@H]2C[C@H]3[C@@H]4C[C@H](F)C5=CC(=O)CC[C@]5(C)[C@H]4[C@@H](O)C[C@]3(C)[C@]2(C(=O)CO)O1"
  QUANTITY_UNIT: "%"
  OBS_VALUE: 1.24

* * *

Test system: JCK
TEST: qHTS profiling for inhibitors of Plasmodium falciparum proliferation (AID 504749); further: nearly all actives have a fitted effect of over 60% in size
EXPERIMENTAL_SETUP: P. falciparum in erythrocytes, SYBR Green DNA, 72 h; series mostly up to 28.7 µM
Inconclusive results are not listed. Active and inactive are the calls of the source. Calls follow the shape of the dose curve; as a rule, active = well fitted inhibition curve with a large enough effect; inconclusive = small, poorly fitted or top-dose-only effect; inactive = flat fitted curve, though single readings scatter.
Classes used: Y (active), N (inactive)

- COMPOUND: "CNCCC(Oc1ccccc1C)c1ccccc1 (stereo not given)"
  LABEL: "N"
- COMPOUND: "NC(=O)C(=O)N/N=C/c1ccc([N+](=O)[O-])o1"
  LABEL: "N"
- COMPOUND: "CCN1CCC[C@H]1CNC(=O)c1c(OC)ccc(Br)c1OC"
  LABEL: "N"
- COMPOUND: "COc1cccc2c1C(=O)c1c(O)c3c(c(O)c1C2=O)C[C@@](O)(C(C)=O)C[C@@H]3O[C@H]1C[C@H](N)[C@H](O)[C@H](C)O1"
  LABEL: "Y"
- COMPOUND: "C#C[C@]1(O)CC[C@H]2[C@@H]3CCc4cc(OC5CCCC5)ccc4[C@H]3CC[C@@]21C"
  LABEL: "N"
- COMPOUND: "CCOC(=O)n1ccn(C)c1=S"
  LABEL: "N"
- COMPOUND: "Oc1ccc(O)cc1"
  LABEL: "N"
- COMPOUND: "COc1ccc(CCN2CCC(Nc3nc4ccccc4n3Cc3ccc(F)cc3)CC2)cc1"
  LABEL: "Y"
- COMPOUND: "c1ccc(CNCCNCc2ccccc2)cc1"
  LABEL: "N"
- COMPOUND: "CC(O)C(=O)O (stereo not given)"
  LABEL: "N"

* * *

Test system: CP329
TEST: qHTS profiling for inhibitors of Plasmodium falciparum proliferation (AID 504749); further: nearly all actives have a fitted effect of over 60% in size
EXPERIMENTAL_SETUP: P. falciparum in erythrocytes, SYBR Green DNA, 72 h; series mostly up to 28.7 µM
Inconclusive results are not listed. The source made the active and inactive calls. Calls come from the whole dose curve; as a rule, active = well fitted inhibition curve with a large enough effect; inconclusive = small, poorly fitted or top-dose-only effect; inactive = flat fitted curve, though single readings scatter.
Possible outcomes: yes (1) for active, no (0) for inactive

- COMPOUND: "CCCOC(C(=O)OC1CCN(C)CC1)(c1ccccc1)c1ccccc1"
  ASSAYED_TARGET: "CP329"
  LABEL: "no (0)"
- COMPOUND: "Cc1ccc(C(=O)C(C)CN2CCCCC2)cc1 (stereo not drawn)"
  ASSAYED_TARGET: "CP329"
  LABEL: "no (0)"
- COMPOUND: "C[C@H](O)C(=O)Nc1c(I)c(C(=O)NC(CO)CO)c(I)c(C(=O)NC(CO)CO)c1I"
  ASSAYED_TARGET: "CP329"
  LABEL: "no (0)"
- COMPOUND: "OCc1ccccc1O"
  ASSAYED_TARGET: "CP329"
  LABEL: "no (0)"
- COMPOUND: "c1ccc(CNCCNCc2ccccc2)cc1"
  ASSAYED_TARGET: "CP329"
  LABEL: "no (0)"
- COMPOUND: "CCOC(=O)COc1ccc2c(C)c(CCN(CC)CC)c(=O)oc2c1Cl"
  ASSAYED_TARGET: "CP329"
  LABEL: "no (0)"
- COMPOUND: "CCCCCCCCCCCCCCNCCO"
  ASSAYED_TARGET: "CP329"
  LABEL: "no (0)"
- COMPOUND: "CC(C)(C)CC(C)(C)c1ccc(O)c(Cc2ccc(Cl)cc2Cl)c1"
  ASSAYED_TARGET: "CP329"
  LABEL: "yes (1)"
- COMPOUND: "CCC(C(=O)OCCN(CC)CC)c1ccccc1 (stereo not drawn)"
  ASSAYED_TARGET: "CP329"
  LABEL: "no (0)"
- COMPOUND: "N[C@H](Cc1c[nH]c2ccccc12)C(=O)O"
  ASSAYED_TARGET: "CP329"
  LABEL: "no (0)"
- COMPOUND: "Cc1ncc(CSSCc2cnc(C)c(O)c2CO)c(CO)c1O"
  ASSAYED_TARGET: "CP329"
  LABEL: "no (0)"
- COMPOUND: "Cc1c(F)c(N2CCNC(C)C2)cc2c1c(=O)c(C(=O)O)cn2C1CC1 (stereo not drawn)"
  ASSAYED_TARGET: "CP329"
  LABEL: "no (0)"
- COMPOUND: "N[C@H](CO)C(=O)O"
  ASSAYED_TARGET: "CP329"
  LABEL: "no (0)"
- COMPOUND: "CCN1CCC[C@H]1CNC(=O)c1c(OC)ccc(Br)c1OC"
  ASSAYED_TARGET: "CP329"
  LABEL: "no (0)"
- COMPOUND: "CCOC(=O)OC(C)OC1=C(C(=O)Nc2ccccn2)N(C)S(=O)(=O)c2ccccc21 (stereo not drawn)"
  ASSAYED_TARGET: "CP329"
  LABEL: "no (0)"
- COMPOUND: "CCCn1c(=O)[nH]c(=O)c2[nH]cnc21"
  ASSAYED_TARGET: "CP329"
  LABEL: "no (0)"
- COMPOUND: "CN(C)CCCOc1nn(Cc2ccccc2)c2ccccc12"
  ASSAYED_TARGET: "CP329"
  LABEL: "no (0)"
- COMPOUND: "Oc1c(I)cc(Cl)c2cccnc12"
  ASSAYED_TARGET: "CP329"
  LABEL: "no (0)"
- COMPOUND: "CC(=O)Oc1ccc(C(c2ccc(OC(C)=O)cc2)c2ccccn2)cc1"
  ASSAYED_TARGET: "CP329"
  LABEL: "no (0)"
- COMPOUND: "c1ccc(OCc2ccc(CCCN3CCOCC3)cc2)cc1"
  ASSAYED_TARGET: "CP329"
  LABEL: "no (0)"
- COMPOUND: "O=C1c2ccccc2C(=O)C1c1ccccc1"
  ASSAYED_TARGET: "CP329"
  LABEL: "no (0)"
- COMPOUND: "Cc1ccc(O)c2ncccc12"
  ASSAYED_TARGET: "CP329"
  LABEL: "no (0)"
- COMPOUND: "CCCCCC=CCC=CCCCCCCCC(=O)OCC"
  ASSAYED_TARGET: "CP329"
  LABEL: "no (0)"
- COMPOUND: "NC(CO)(CO)CO"
  ASSAYED_TARGET: "CP329"
  LABEL: "no (0)"
- COMPOUND: "CCCN1CCCC[C@H]1C(=O)Nc1c(C)cccc1C"
  ASSAYED_TARGET: "CP329"
  LABEL: "no (0)"
- COMPOUND: "CCOC(=O)n1ccn(C)c1=S"
  ASSAYED_TARGET: "CP329"
  LABEL: "no (0)"
- COMPOUND: "COc1ccc(CCN2CCC(Nc3nc4ccccc4n3Cc3ccc(F)cc3)CC2)cc1"
  ASSAYED_TARGET: "CP329"
  LABEL: "yes (1)"
- COMPOUND: "O=C1CCC(c2ccc(-n3ccnc3)cc2)=NN1"
  ASSAYED_TARGET: "CP329"
  LABEL: "no (0)"
